- PROTOCOL TEXT: qHTS assay to identify small molecule inhibitors of chordoma cells - UCH-1 (AID 1259355); note: nearly all actives have a fitted effect of over 55% in size
- APPLIED CONDITIONS: UCH-1 chordoma viability, CellTiter-Glo, 48 h, combination, with auranofin plus four topoisomerase inhibitors; series mostly up to 46.1 µM
Records with an inconclusive call do not appear. The source made the active and inactive calls. Calls come from the whole dose curve; as a rule, active = well fitted cell-killing curve with a large enough effect; inconclusive = small, poorly fitted or top-dose-only effect, or effect the other way; inactive = no such curve, though single readings can be large or run the other way.
Respond only with the outcome that fits, drawn from active, inactive

Use these answered entries as a reference point.
1. CC(S)C(=O)NCC(=O)O (configuration not stated): inactive
2. COc1cc(OC)c(C(=O)CCCN2CCCC2)c(OC)c1: inactive
3. O=C1c2ccccc2-c2n[nH]c3cccc1c23: inactive
4. Cc1cc2c(s1)Nc1ccccc1N=C2N1CCN(C)CC1: inactive
5. Cc1cc(C2CCCCC2)n(O)c(=O)c1: inactive

Exercise: // return assay outcome for `Cc1cc(=O)c2c(O)c3c(O)cc(=O)c4c3c3c(cc(O)c1c23)C(C)(C)C=4O`
Solution: active

Exercise: // return assay outcome for `CCCc1cc(=O)[nH]c(=S)[nH]1`
Solution: inactive

----------
- Test system: CP286
- PROTOCOL TEXT: qHTS profiling for inhibitors of Plasmodium falciparum proliferation (AID 504749); note: nearly all actives have a fitted effect of over 60% in size
- APPLIED CONDITIONS: P. falciparum in erythrocytes, SYBR Green DNA, 72 h; series mostly up to 28.7 µM
Inconclusive results are not listed. Activity calls are given as the source filed them. The call rests on the fitted dose curve; in most records, active means well fitted inhibition curve with a large enough effect; inconclusive means small, poorly fitted or top-dose-only effect; inactive means flat fitted curve, though single readings scatter.
Respond only with the outcome that fits, drawn from 1.0 (active), 0.0 (inactive)

Use these answered entries as a reference point.
1) N=C(N)c1ccc2cc(OC(=O)c3ccc(N=C(N)N)cc3)ccc2c1: 1.0
2) Nc1ccc(S(N)(=O)=O)cc1: 0.0
3) O=C(O)c1cc(=O)c2c(OCC(O)COc3cccc4oc(C(=O)O)cc(=O)c34)cccc2o1: 0.0
4) COC(=O)C1=C(C)NC(C)=C(C(=O)OCCCN2CCC(c3ccccc3)(c3ccccc3)CC2)C1c1cccc([N+](=O)[O-])c1 (stereo not given): 1.0
5) CS(=O)(=O)OCCCCOS(C)(=O)=O: 0.0
6) CCOC(=O)c1c(C)n(C)c2ccc(O)cc12: 0.0
7) Nc1nc(Cl)nc2c1ncn2[C@H]1C[C@H](O)[C@@H](CO)O1: 0.0
8) Cc1ccc(NC(=O)c2ccc(CN3CCN(C)CC3)cc2)cc1Nc1nccc(-c2cccnc2)n1: 1.0

Exercise: // return assay outcome for `O=C(NCCO[N+](=O)[O-])c1cccnc1`
Solution: 0.0

Exercise: // return assay outcome for CCCCN(CCCC)CCC(O)c1cc2c(Cl)cc(Cl)cc2c2cc(C(F)(F)F)ccc12 (stereo not given)
Solution: 1.0

----------
- PROTOCOL TEXT: qHTS Screen of the MIPE 4.0 Collection Against Ewings Sarcoma (TC32) (AID 1259256); note: nearly all actives have a fitted effect of over 45% in size
- APPLIED CONDITIONS: TC32 Ewing sarcoma viability, CellTiter-Glo, 48 h; series mostly up to 45.8 µM
Inconclusive results are not listed. The source made the active and inactive calls. Calls follow the shape of the dose curve; as a rule, active = well fitted inhibition curve with a large enough effect; inconclusive = small, poorly fitted or top-dose-only effect; inactive = no such curve, though single readings can be large or run the other way.
Respond only with the outcome that fits, drawn from yes = active, no = inactive

Use these answered entries as a reference point.
1. COc1cc2c(cc1OC)C1CC(=O)C(CC(C)C)CN1CC2 (stereo unspecified): no
2. O=C(NC(Cc1cc(=O)[nH]c2ccccc12)C(=O)O)c1ccc(Cl)cc1 (stereo unspecified): no
3. COC(=O)C1=C(C)NC(C)=C(C(=O)OCCCN2CCC(c3ccccc3)(c3ccccc3)CC2)C1c1cccc([N+](=O)[O-])c1 (stereo unspecified): yes
4. Cc1c(OCC(F)(F)F)ccnc1CS(=O)c1nc2ccccc2[nH]1 (stereo unspecified): no
5. COc1ccc2cc([C@H](C)C(=O)O)ccc2c1: no

Exercise: // return assay outcome for `Cc1cc2c(s1)Nc1ccccc1N=C2N1CCN(C)CC1`
Solution: no

Exercise: // return assay outcome for `O=c1c(O)c(-c2cc(O)c(O)c(O)c2)oc2cc(O)cc(O)c12`
Solution: no
